These entries and their values trace back to PubChem BioAssay AID1963442.

Recorded IC50 values for a group of molecules are listed next.
Test system: MPNST complex spheroid with HUVEC/MSC, growth, % test/control
ASSAY PROCEDURE: Anticancer human tumor MPNST cell line growth inhibition [Asc];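 further: compounds left on spheroids for seven days before reading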
SETTINGS: curve of first compound; second compound 1 µM

Recorded results for 5 molecules are shown here.
COc1c(OCCCN2CCOCC2)ccc2c3n(c(=NC(=O)c4cnc(N)nc4)nc12)CCN3 + Cc1c(S(C)(=O)=O)c(-c2cc(F)cc(N3CCN(c4ccc(NS(=O)(=O)c5ccc(NC(CCN6CCC(C(=O)OCCCP(=O)(O)O)CC6)CSc6ccccc6)c(S(=O)(=O)C(F)(F)F)c5)cc4)CC3)c2)c(-c2ccc(Cl)cc2)n1C(C)C: 0.0628 µM
O=C(c1ccc(F)c(F)c1Nc1ccc(I)cc1F)N1CC(O)([C@@H]2CCCCN2)C1 + Cc1c(S(C)(=O)=O)c(-c2cc(F)cc(N3CCN(c4ccc(NS(=O)(=O)c5ccc(NC(CCN6CCC(C(=O)OCCCP(=O)(O)O)CC6)CSc6ccccc6)c(S(=O)(=O)C(F)(F)F)c5)cc4)CC3)c2)c(-c2ccc(Cl)cc2)n1C(C)C: 0.259 µM
CCN1CCN(Cc2ccc(Nc3ncc(F)c(-c4cc(F)c5nc(C)n(C(C)C)c5c4)n3)nc2)CC1 + CNC(C)C(=O)NC1CN(S(=O)(=O)c2cccc(S(=O)(=O)N3CCC4CCC(C(=O)NC(c5ccccc5)c5ccccc5)N4C(=O)C(NC(=O)C(C)NC)C3)c2)CCC2CCC(C(=O)NC(c3ccccc3)c3ccccc3)N2C1=O: > 1 µM
C#Cc1c(F)ccc2cc(O)cc(-c3ncc4c(N5CC6CCC(C5)N6)nc(OCC56CCCN5CC(F)C6)nc4c3F)c12 (centres undefined) + Cc1c(S(C)(=O)=O)c(-c2cc(F)cc(N3CCN(c4ccc(NS(=O)(=O)c5ccc(NC(CCN6CCC(C(=O)OCCCP(=O)(O)O)CC6)CSc6ccccc6)c(S(=O)(=O)C(F)(F)F)c5)cc4)CC3)c2)c(-c2ccc(Cl)cc2)n1C(C)C: > 10 µM
CCN1C(C(=O)NC23CCC(C(=O)O)(CC2)CC3)C(c2cccc(Cl)c2F)C2(C(=O)Nc3cc(Cl)ccc32)C12CCCCC2 (centres undefined) + CNC(C)C(=O)NC1CN(S(=O)(=O)c2cccc(S(=O)(=O)N3CCC4CCC(C(=O)NC(c5ccccc5)c5ccccc5)N4C(=O)C(NC(=O)C(C)NC)C3)c2)CCC2CCC(C(=O)NC(c3ccccc3)c3ccccc3)N2C1=O: > 3 µM

Asked: Given the molecule NC1CCC(NC2CC2c2ccccc2)CC1 (centres undefined) + CNC(C)C(=O)NC1CN(S(=O)(=O)c2cccc(S(=O)(=O)N3CCC4CCC(C(=O)NC(c5ccccc5)c5ccccc5)N4C(=O)C(NC(=O)C(C)NC)C3)c2)CCC2CCC(C(=O)NC(c3ccccc3)c3ccccc3)N2C1=O , what is its reported IC50?
Given back: > 0.1 µM

Asked: Given the molecule NC(=O)C(=Cn1cnc(-c2cc(C(F)(F)F)cc(C(F)(F)F)c2)n1)c1cncnc1 + CNC(C)C(=O)NC1CN(S(=O)(=O)c2cccc(S(=O)(=O)N3CCC4CCC(C(=O)NC(c5ccccc5)c5ccccc5)N4C(=O)C(NC(=O)C(C)NC)C3)c2)CCC2CCC(C(=O)NC(c3ccccc3)c3ccccc3)N2C1=O , what is its reported IC50?
Given back: 0.0698 µM

Asked: Given the molecule Cc1nc(N2CCC3(CC2)COC(C)C3N)c(CO)nc1Sc1ccnc(N)c1Cl (centres undefined) + Cc1c(S(C)(=O)=O)c(-c2cc(F)cc(N3CCN(c4ccc(NS(=O)(=O)c5ccc(NC(CCN6CCC(C(=O)OCCCP(=O)(O)O)CC6)CSc6ccccc6)c(S(=O)(=O)C(F)(F)F)c5)cc4)CC3)c2)c(-c2ccc(Cl)cc2)n1C(C)C , what is its reported IC50?
Given back: > 3 µM

Asked: Given the molecule C#Cc1c(F)ccc2cc(O)cc(-c3ncc4c(N5CC6CCC(C5)N6)nc(OCC56CCCN5CC(F)C6)nc4c3F)c12 (centres undefined) + CNC(C)C(=O)NC1CN(S(=O)(=O)c2cccc(S(=O)(=O)N3CCC4CCC(C(=O)NC(c5ccccc5)c5ccccc5)N4C(=O)C(NC(=O)C(C)NC)C3)c2)CCC2CCC(C(=O)NC(c3ccccc3)c3ccccc3)N2C1=O , what is its reported IC50?
Given back: > 10 µM
